assay-name: protein stability index of a GFP-peptide fusion (GPS, HEK-293T) (PSI 1-6); higher = more stable;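 further: 24-mer peptide tiles fused after GFP, lentivirally expressed, FACS-sorted into six equal bins by GFP/DsRed ratio, decoded by Illumina sequencing, PSI is the read-weighted mean bin number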
experimental-setup: treatment: DMSO; c terminus: a fixed tail appended
measured-metric: protein stability index
API note: the answer field is a bare number with no unit suffix.

**Q:** For the sequence SFQMSEGSEAAVIPLDLGCTQVTQ [FAM189A2] , what protein stability index is on record?
**A:** 4.56

**Q:** For the sequence TMTNYDEAAMAIASLNGYRLGERV [ELAVL3] , what protein stability index is on record?
**A:** 3

**Q:** For the sequence HLVQHQHPNSRKSSAGGAKAGQPE [ZNF8] , what protein stability index is on record?
**A:** 4.8

**Q:** For the sequence KKDTGHIYAMKILRKSDMLEKEQV [STK38L] , what protein stability index is on record?
**A:** 3.36

**Q:** For the sequence GFGLAHTPLEPDAKDLPCDSKPES [TBX5] , what protein stability index is on record?
**A:** 5.38

**Q:** For the sequence FTDCSFFVRGQEFKAHKSVLAARS [SPOPL] , what protein stability index is on record?
**A:** 2.95

**Q:** For the sequence DLRGVCVSGKCEPIGCDGVLFSTH [ADAMTSL2] , what protein stability index is on record?
**A:** 2.4

**Q:** For the sequence PPDSKEGIVVESNHDSHMAKERAH [PDZK1] , what protein stability index is on record?
**A:** 5.55

**Q:** For the sequence QYLEEERHMREENLRLQRKLQREM [CCDC6] , what protein stability index is on record?
**A:** 4.24

**Q:** For the sequence EMAFNTRCKEENTIILQQLLPLRT [NLN] , what protein stability index is on record?
**A:** 2.54

**Q:** For the sequence RGKIHAFRGQILGFWEEERPFWEE [CCDC70] , what protein stability index is on record?
**A:** 2.42

**Q:** For the sequence GEEPVPHQQVEEALSFTLLGSAPL [NEK8] , what protein stability index is on record?
**A:** 4.33

**Q:** For the sequence EKFSSSLHELSSRVEASHLTTSQE [FBF1] , what protein stability index is on record?
**A:** 4.99

**Q:** For the sequence KEQILEFLVLEQFLTILPEELQSW [ZNF232] , what protein stability index is on record?
**A:** 3.21

**Q:** For the sequence LMSGALAVNQKIDRESLCGASTSC [PCDHGC5] , what protein stability index is on record?
**A:** 3.67

**Q:** For the sequence HSKLLVSGFWGVARHFNYVGDLMG [DHCR7] , what protein stability index is on record?
**A:** 2.34

**Q:** For the sequence NYCPQQTKITSAFKYINTVISCTI [EDNRA] , what protein stability index is on record?
**A:** 3.3

**Q:** For the sequence EAPQWLESDSCQKCEQPFFWNIKQ [WDFY1] , what protein stability index is on record?
**A:** 3.32

**Q:** For the sequence IGLDNGTISEFILSEDYNKMTPVK [WDFY2] , what protein stability index is on record?
**A:** 2.98

**Q:** For the sequence SFEDDCSQSLCLNKPTMSFKDYIQ [ETS2] , what protein stability index is on record?
**A:** 3.52

**Q:** For the sequence SAKLAPHYFHSISYKIEEISPSTL [KCNK9] , what protein stability index is on record?
**A:** 2.41

**Q:** For the sequence YGHELLINTLITSGADTAKCGIHS [ANKRD44] , what protein stability index is on record?
**A:** 2.27

**Q:** For the sequence AALSEENTGKTYFFVANKYWRYDE [MMP1] , what protein stability index is on record?
**A:** 2.49

**Q:** For the sequence FCREEMGEVLKSSTFSSGPSDKMK [SPOPL] , what protein stability index is on record?
**A:** 3.53

**Q:** For the sequence VRTTRGKRKRVDVEESEASSSVSI [LMNB1] , what protein stability index is on record?
**A:** 5.13

**Q:** For the sequence PSSMDLLIQDSPDSSTSPKGKQPT [NANOGP8] , what protein stability index is on record?
**A:** 5.2

**Q:** For the sequence YLILALLSVTISFRIYKSVIQAVQ [RTN3] , what protein stability index is on record?
**A:** 3.42

**Q:** For the sequence IDGDGDDMERFMEEMRELRRKIRE [BEX5] , what protein stability index is on record?
**A:** 3.26

**Q:** For the sequence ESLSSQLSNLQKESRACLERIQEL [LMNB1] , what protein stability index is on record?
**A:** 4.28

**Q:** For the sequence DKMEAYNIDETCGRHHSQSTEVQA [TEKT4] , what protein stability index is on record?
**A:** 4.91

**Q:** For the sequence PGPGIGGDAHFDEDERWTNNFREY [MMP1] , what protein stability index is on record?
**A:** 4.14

**Q:** For the sequence TYRIENYTPDLPRADVDHAIEKAF [MMP1] , what protein stability index is on record?
**A:** 3.4

**Q:** For the sequence SGSGNGSSTLNPSTSSSTQGDPAF [NOL4L] , what protein stability index is on record?
**A:** 5.04

**Q:** For the sequence MNRSIPVEVDESEPYPSQLLKPIP [TRAF3IP2] , what protein stability index is on record?
**A:** 4.44

All figures here come from the supplement of paper PMC10567573.
